These data points were gathered from ChEMBL document CHEMBL1137417.

In this section, each of the compounds is paired with its reported EC50.
Biological target: Heat shock protein HSP90 (Homo sapiens, UniProt P07900+P08238)
Assay: Inhibition of BODIPY-AG binding to human HSP90
Assay type: protein assay
Please give a number only; it is taken to be in nM.

Check out these entries, answers already filled in.
Compound	EC50 (nM)
C=CCN1C(=O)COc2cc3c(O)c(c21)C[C@@H](C)C[C@H](OC)[C@H](O)[C@@H](C)/C=C(\C)[C@H](OC(N)=O)[C@@H](OC)/C=C\C=C(/C)C(=O)N3	541
C=CCn1c(=O)oc2cc3c(O)c(c21)C[C@@H](C)C[C@H](OC)[C@H](O)[C@@H](C)/C=C(\C)[C@H](OC(N)=O)[C@@H](OC)/C=C\C=C(/C)C(=O)N3	603

Field request: EC50 | item: Nc1ncnc2c1ncn2[C@@H]1O[C@H](COP(=O)(O)OP(=O)(O)O)[C@@H](O)[C@H]1O [ADENOSINE DIPHOSPHATE] 87000

Looking for the measured EC50 of CO[C@H]1/C=C\C=C(/C)C(=O)Nc2cc(O)c(N)c(c2O)C[C@@H](C)C[C@H](OC)[C@H](O)[C@@H](C)/C=C(\C)[C@@H]1OC(N)=O.Cl , can you help? 34

Which EC50 reading was recorded for the compound CO[C@H]1/C=C\C=C(/C)C(=O)NC2=CC(=O)C(N)=C(C[C@@H](C)C[C@H](OC)[C@H](O)[C@@H](C)/C=C(\C)[C@@H]1OC(N)=O)C2=O ? 34

###

Target: Endoplasmin (Canis lupus familiaris, UniProt P41148)
Sequence (P41148 whole entry): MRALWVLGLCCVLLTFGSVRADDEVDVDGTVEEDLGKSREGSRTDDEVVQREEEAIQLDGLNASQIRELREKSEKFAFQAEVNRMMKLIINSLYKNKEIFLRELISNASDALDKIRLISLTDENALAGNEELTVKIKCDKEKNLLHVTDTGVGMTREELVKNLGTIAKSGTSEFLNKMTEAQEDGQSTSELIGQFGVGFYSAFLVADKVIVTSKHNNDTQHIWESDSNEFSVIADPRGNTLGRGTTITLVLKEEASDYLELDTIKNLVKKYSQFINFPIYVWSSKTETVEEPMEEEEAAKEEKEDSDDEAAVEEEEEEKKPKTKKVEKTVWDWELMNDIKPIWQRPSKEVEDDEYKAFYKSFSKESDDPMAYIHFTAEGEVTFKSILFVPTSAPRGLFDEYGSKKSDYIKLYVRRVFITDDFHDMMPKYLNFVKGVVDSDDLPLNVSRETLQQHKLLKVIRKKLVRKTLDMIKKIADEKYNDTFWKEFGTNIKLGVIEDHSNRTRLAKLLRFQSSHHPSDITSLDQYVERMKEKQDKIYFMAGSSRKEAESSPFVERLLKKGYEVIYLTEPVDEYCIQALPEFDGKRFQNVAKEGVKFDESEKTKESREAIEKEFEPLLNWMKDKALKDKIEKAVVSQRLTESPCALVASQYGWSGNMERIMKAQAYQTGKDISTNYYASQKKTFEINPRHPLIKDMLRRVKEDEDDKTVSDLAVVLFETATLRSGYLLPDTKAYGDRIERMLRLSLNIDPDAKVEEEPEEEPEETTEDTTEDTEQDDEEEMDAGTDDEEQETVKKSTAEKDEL
Test: Inhibition of BODIPY-AG binding to dog Grp94
Endpoint Name: log10 of EC50 (log10 of the value in nM)
Remember, log10 of EC50, in nM.

Compound	log10 of EC50
Nc1ncnc2c1ncn2[C@@H]1O[C@H](COP(=O)(O)OP(=O)(O)OP(=O)(O)O)[C@@H](O)[C@H]1O [ADENOSINE TRIPHOSPHATE]	4.28
CO[C@H]1/C=C\C=C(/C)C(=O)NC2=CC(=O)C(N)=C(C[C@@H](C)C[C@H](OC)[C@H](O)[C@@H](C)/C=C(\C)[C@@H]1OC(N)=O)C2=O	1.68
CO[C@H]1/C=C\C=C(/C)C(=O)Nc2cc(O)c(N)c(c2O)C[C@@H](C)C[C@H](OC)[C@H](O)[C@@H](C)/C=C(\C)[C@@H]1OC(N)=O.Cl	1.68
Nc1ncnc2c1ncn2[C@@H]1O[C@H](COP(=O)(O)OP(=O)(O)O)[C@@H](O)[C@H]1O [ADENOSINE DIPHOSPHATE]	4.32

Please look up its log10 of EC50: C=CCNC1=C2C[C@@H](C)C[C@H](OC)[C@H](O)[C@@H](C)/C=C(\C)[C@H](OC(N)=O)[C@@H](OC)/C=C\C=C(/C)C(=O)NC(=CC1=O)C2=O 2.09

Returns the measured log10 of EC50 for the input compound. Input: CO[C@H]1/C=C\C=C(/C)C(=O)NC2=CC(=O)C(NCCN(C)C)=C(C[C@@H](C)C[C@H](OC)[C@H](O)[C@@H](C)/C=C(\C)[C@@H]1OC(N)=O)C2=O 1.81

###

Biological target: Heat shock protein HSP90 (Homo sapiens, UniProt P07900+P08238)
Test: Upregulation of Hsp70 in SKBR3 cells
Format: functional, cell-based
Conditions: sk-br-3
Endpoint Name: log10 of EC50 (log10 of the value in nM)
Each number you see is log10 of EC50, and the unit inside the log is nM.

Here are 5 compounds together with their reported answers.
Smiles Structure	Test System	Data Value
CO[C@H]1/C=C\C=C(/C)C(=O)Nc2cc(O)c(N)c(c2O)C[C@@H](C)C[C@H](OC)[C@H](O)[C@@H](C)/C=C(\C)[C@@H]1OC(N)=O.Cl	Heat shock protein HSP90 (Homo sapiens, UniProt P07900+P08238)	1.76
C=CCN1C(=O)COc2cc3c(O)c(c21)C[C@@H](C)C[C@H](OC)[C@H](O)[C@@H](C)/C=C(\C)[C@H](OC(N)=O)[C@@H](OC)/C=C\C=C(/C)C(=O)N3	Heat shock protein HSP90 (Homo sapiens, UniProt P07900+P08238)	2.49
CO[C@H]1/C=C\C=C(/C)C(=O)NC2=CC(=O)C(N)=C(C[C@@H](C)C[C@H](OC)[C@H](O)[C@@H](C)/C=C(\C)[C@@H]1OC(N)=O)C2=O	Heat shock protein HSP90 (Homo sapiens, UniProt P07900+P08238)	1.23
C=CCn1c(=O)oc2cc3c(O)c(c21)C[C@@H](C)C[C@H](OC)[C@H](O)[C@@H](C)/C=C(\C)[C@H](OC(N)=O)[C@@H](OC)/C=C\C=C(/C)C(=O)N3	Heat shock protein HSP90 (Homo sapiens, UniProt P07900+P08238)	2.58
CO[C@H]1/C=C\C=C(/C)C(=O)Nc2cc(O)c(NC[C@H](O)CO)c(c2O)C[C@@H](C)C[C@H](OC)[C@H](O)[C@@H](C)/C=C(\C)[C@@H]1OC(N)=O.Cl	Heat shock protein HSP90 (Homo sapiens, UniProt P07900+P08238)	2.01

Shift focus to the following entry.
State the recorded log10 of EC50 for this entry: CO[C@H]1/C=C\C=C(/C)C(=O)NC2=CC(=O)C(NC[C@H](O)CO)=C(C[C@@H](C)C[C@H](OC)[C@H](O)[C@@H](C)/C=C(\C)[C@@H]1OC(N)=O)C2=O 2.15
